- Tested on: Rhizopus
- EXPERIMENTAL DETAILS: Antimicrobial activity against Rhizopus at 500 ppm after 72 to 96 hr by disk diffusion method
- Format: functional
- CONDITIONS: read-out: IZ
Reported values of zone of inhibition at 500 ppm for individual entries
MEASURE: zone of inhibition at 500 ppm (mm)

LINE NOTATION: Cc1ccc(/C=C/C(=O)c2ccc(N3CCOCC3)cc2)cc1
MEASURED RESULT: 17
//
LINE NOTATION: COc1ccc(/C=C/C(=O)c2ccc(N3CCOCC3)cc2)cc1
MEASURED RESULT: 17
//
LINE NOTATION: O=C(/C=C/c1ccc(Cl)cc1)c1ccc(N2CCOCC2)cc1
MEASURED RESULT: 30
//
LINE NOTATION: O=C(/C=C/c1cccc([N+](=O)[O-])c1)c1ccc(N2CCOCC2)cc1
MEASURED RESULT: 22
//
LINE NOTATION: O=C(/C=C/c1ccc(F)cc1)c1ccc(N2CCOCC2)cc1
MEASURED RESULT: 22
//
LINE NOTATION: O=C(/C=C/c1ccccc1)c1ccc(N2CCOCC2)cc1
MEASURED RESULT: 17

----------
Reported values of zone of inhibition at 100 ppm for individual entries
- Tested on: Streptococcus
- EXPERIMENTAL DETAILS: Antimicrobial activity against beta-hemolytic Streptococcus at 100 ppm after 24 hr by disk diffusion method
- Type: functional
- CONDITIONS: read-out: IZ

LINE NOTATION: Cc1ccc(/C=C/C(=O)c2ccc(N3CCOCC3)cc2)cc1
zone of inhibition at 100 ppm: 12 mm
//
LINE NOTATION: O=C(/C=C/c1ccccc1)c1ccc(N2CCOCC2)cc1
zone of inhibition at 100 ppm: 12 mm
//
LINE NOTATION: O=C(/C=C/c1ccc(Cl)cc1)c1ccc(N2CCOCC2)cc1
zone of inhibition at 100 ppm: 12 mm
//
LINE NOTATION: COc1ccc(/C=C/C(=O)c2ccc(N3CCOCC3)cc2)cc1
zone of inhibition at 100 ppm: 12 mm

----------
- Test system: Salmonella typhi
- EXPERIMENTAL DETAILS: Antimicrobial activity against Salmonella enterica subsp. enterica serovar Typhi at 500 ppm after 24 hr by disk diffusion method
- Format: functional
- CONDITIONS: read-out: IZ

LINE NOTATION: COc1ccc(/C=C/C(=O)c2ccc(N3CCOCC3)cc2)cc1
MEASUREMENT TARGET: Salmonella typhi
READOUT UNITS: mm
zone of inhibition at 500 ppm: 17
//
LINE NOTATION: O=C(/C=C/c1ccccc1)c1ccc(N2CCOCC2)cc1
MEASUREMENT TARGET: Salmonella typhi
READOUT UNITS: mm
zone of inhibition at 500 ppm: 17
//
LINE NOTATION: O=C(/C=C/c1ccc(Cl)cc1)c1ccc(N2CCOCC2)cc1
MEASUREMENT TARGET: Salmonella typhi
READOUT UNITS: mm
zone of inhibition at 500 ppm: 22
//
LINE NOTATION: Cc1ccc(/C=C/C(=O)c2ccc(N3CCOCC3)cc2)cc1
MEASUREMENT TARGET: Salmonella typhi
READOUT UNITS: mm
zone of inhibition at 500 ppm: 17
//
LINE NOTATION: O=C(/C=C/c1ccc(F)cc1)c1ccc(N2CCOCC2)cc1
MEASUREMENT TARGET: Salmonella typhi
READOUT UNITS: mm
zone of inhibition at 500 ppm: 17
//
LINE NOTATION: O=C(/C=C/c1cccc([N+](=O)[O-])c1)c1ccc(N2CCOCC2)cc1
MEASUREMENT TARGET: Salmonella typhi
READOUT UNITS: mm
zone of inhibition at 500 ppm: 17

----------
- Tested on: Mucor
- EXPERIMENTAL DETAILS: Antimicrobial activity against Mucor at 200 ppm after 72 to 96 hr by disk diffusion method
- Type: functional
- CONDITIONS: read-out: IZ

LINE NOTATION: COc1ccc(/C=C/C(=O)c2ccc(N3CCOCC3)cc2)cc1
READOUT UNITS: mm
zone of inhibition at 200 ppm: 12
//
LINE NOTATION: O=C(/C=C/c1ccc(Cl)cc1)c1ccc(N2CCOCC2)cc1
READOUT UNITS: mm
zone of inhibition at 200 ppm: 17
//
LINE NOTATION: O=C(/C=C/c1ccccc1)c1ccc(N2CCOCC2)cc1
READOUT UNITS: mm
zone of inhibition at 200 ppm: 12
//
LINE NOTATION: Cc1ccc(/C=C/C(=O)c2ccc(N3CCOCC3)cc2)cc1
READOUT UNITS: mm
zone of inhibition at 200 ppm: 12
//
LINE NOTATION: O=C(/C=C/c1ccc(F)cc1)c1ccc(N2CCOCC2)cc1
READOUT UNITS: mm
zone of inhibition at 200 ppm: 17
//
LINE NOTATION: O=C(/C=C/c1cccc([N+](=O)[O-])c1)c1ccc(N2CCOCC2)cc1
READOUT UNITS: mm
zone of inhibition at 200 ppm: 17

----------
- Tested on: Klebsiella pneumoniae
- EXPERIMENTAL DETAILS: Antimicrobial activity against Klebsiella pneumoniae at 200 ppm after 24 hr by disk diffusion method
- Assay type: functional
- CONDITIONS: read-out: IZ
Reported values of zone of inhibition at 200 ppm for individual entries

LINE NOTATION: O=C(/C=C/c1ccc(F)cc1)c1ccc(N2CCOCC2)cc1
zone of inhibition at 200 ppm, mm: 12
--
LINE NOTATION: COc1ccc(/C=C/C(=O)c2ccc(N3CCOCC3)cc2)cc1
zone of inhibition at 200 ppm, mm: 17
--
LINE NOTATION: O=C(/C=C/c1ccccc1)c1ccc(N2CCOCC2)cc1
zone of inhibition at 200 ppm, mm: 12
--
LINE NOTATION: O=C(/C=C/c1cccc([N+](=O)[O-])c1)c1ccc(N2CCOCC2)cc1
zone of inhibition at 200 ppm, mm: 17
--
LINE NOTATION: Cc1ccc(/C=C/C(=O)c2ccc(N3CCOCC3)cc2)cc1
zone of inhibition at 200 ppm, mm: 17
--
LINE NOTATION: O=C(/C=C/c1ccc(Cl)cc1)c1ccc(N2CCOCC2)cc1
zone of inhibition at 200 ppm, mm: 22
